protocol text: PK profile in rats
Assay type: in vivo, rat
run parameters: rat, in vivo
Assign clearance to each entry below.
Give bare numbers, in mL/min/kg.

# count of solved cases: 3
What does the record list as clearance for CCC(c1ccc(Br)cc1)(C(C)O)n1ncc2c(NS(C)(=O)=O)cccc21 (single isomer, unassigned) ? 18

What does the record list as clearance for CC(O)C(CC(F)F)(c1ccc(C(F)(F)F)cc1)n1ncc2c(NS(C)(=O)=O)cccc21 (single isomer, unassigned) ? 14

What does the record list as clearance for CS(=O)(=O)Nc1cccc2c1cnn2C(CC(F)F)(C(N)=O)c1ccc(C(F)(F)F)cc1 (single isomer, unassigned) ? 6.2

Now let's try a different one.
What does the record list as clearance for CCC(c1ccc(C(F)(F)F)cc1)(C(C)O)n1ncc2c(NS(C)(=O)=O)cc(F)cc21 (single isomer, unassigned) ? 8.4
